Where do these numbers come from? They come from paper PMC7994712.

- target-of-assay: SSTR2 (Homo sapiens, UniProt P30874)
- Construct: host or cells: CHO-K1
- Sequence (P30874 whole entry): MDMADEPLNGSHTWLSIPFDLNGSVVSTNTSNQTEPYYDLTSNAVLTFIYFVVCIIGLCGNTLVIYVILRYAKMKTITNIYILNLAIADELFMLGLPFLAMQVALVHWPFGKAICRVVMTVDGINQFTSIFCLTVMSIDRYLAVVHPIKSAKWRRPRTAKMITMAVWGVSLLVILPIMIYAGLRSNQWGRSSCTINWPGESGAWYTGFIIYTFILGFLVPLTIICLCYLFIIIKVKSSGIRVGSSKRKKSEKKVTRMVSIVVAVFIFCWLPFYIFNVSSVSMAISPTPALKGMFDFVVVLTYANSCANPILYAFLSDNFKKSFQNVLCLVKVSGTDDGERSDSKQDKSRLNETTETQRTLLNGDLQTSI
- experiment-notes: Radio-ligand binding assay, SSTR2
property: pIC50
Answers are plain numbers, as −log10 of the molar value.

Solved cases (3 shown):
1) CCCCCCCC(=O)N1CCC[C@H]1C(=O)N[C@H]1CSSC[C@@H](C(=O)N[C@@H](CCCCN)C(=O)O)NC(=O)[C@H](CO)NC(=O)[C@H]([C@@H](C)O)NC(=O)[C@H](Cc2ccccc2)NC(=O)[C@H]([C@@H](C)O)NC(=O)[C@H](CCCCN)NC(=O)[C@@H](Cc2c[nH]c3ccccc23)NC(=O)[C@H](Cc2c(C)cc(C)cc2C)NC(=O)[C@H](Cc2ccccc2)NC(=O)[C@H](CC(N)=O)NC(=O)[C@H](CCCCN)NC1=O    8.55
2) CCCCCCCC(=O)N1CCC[C@H]1C(=O)N[C@H]1CSSC[C@@H](C(=O)N[C@@H](CCCCN)C(=O)O)NC(=O)[C@H](CO)NC(=O)[C@H]([C@@H](C)O)NC(=O)[C@H](Cc2ccccc2)NC(=O)[C@H]([C@@H](C)O)NC(=O)[C@H](CCCCN)NC(=O)[C@@H](Cc2c[nH]c3ccccc23)NC(=O)[C@H](Cc2ccccc2)NC(=O)[C@H](Cc2c(C)cc(C)cc2C)NC(=O)[C@H](CC(N)=O)NC(=O)[C@H](CCCCN)NC1=O    7.46
3) Cc1cc(C)c(C[C@@H]2NC(=O)[C@H](Cc3ccccc3)NC(=O)[C@H](CC(N)=O)NC(=O)[C@H](CCCCN)NC(=O)[C@@H](NC(=O)[C@@H]3CCCN3)CSSC[C@@H](C(=O)N[C@@H](CCCCN)C(=O)O)NC(=O)[C@H](CO)NC(=O)[C@H]([C@@H](C)O)NC(=O)[C@H](Cc3ccccc3)NC(=O)[C@H]([C@@H](C)O)NC(=O)[C@H](CCCCN)NC(=O)[C@@H](Cc3c[nH]c4ccccc34)NC2=O)c(C)c1    9.38

Entry Cc1cc(C)c(C[C@@H]2NC(=O)[C@H](CC(N)=O)NC(=O)[C@H](CCCCN)NC(=O)[C@@H](NC(=O)[C@@H]3CCCN3)CSSC[C@@H](C(=O)N[C@@H](CCCCN)C(=O)O)NC(=O)[C@H](CO)NC(=O)[C@H]([C@@H](C)O)NC(=O)[C@H](Cc3ccccc3)NC(=O)[C@H]([C@@H](C)O)NC(=O)[C@H](CCCCN)NC(=O)[C@@H](Cc3c[nH]c4ccccc34)NC(=O)[C@H](Cc3ccccc3)NC2=O)c(C)c1 [A4, [L-Msa5_D-Trp7_L-Thr11]-CST 14] : reported pIC50 = ?
8.01
